Reported EC50 values for a set of binders
# measurement_target: T1, human αvβ5 expressed on BaF3 cells (stably transfected with human αv and β5 subunits) (human, UniProt P06756 31-1048; P18084 24-799)
# T1 construct: also called αvβ5-BaF3; BaF3-hu αvβ5
# T1 sequence (P06756 31-1048 limits assumed, chain 1 of 2): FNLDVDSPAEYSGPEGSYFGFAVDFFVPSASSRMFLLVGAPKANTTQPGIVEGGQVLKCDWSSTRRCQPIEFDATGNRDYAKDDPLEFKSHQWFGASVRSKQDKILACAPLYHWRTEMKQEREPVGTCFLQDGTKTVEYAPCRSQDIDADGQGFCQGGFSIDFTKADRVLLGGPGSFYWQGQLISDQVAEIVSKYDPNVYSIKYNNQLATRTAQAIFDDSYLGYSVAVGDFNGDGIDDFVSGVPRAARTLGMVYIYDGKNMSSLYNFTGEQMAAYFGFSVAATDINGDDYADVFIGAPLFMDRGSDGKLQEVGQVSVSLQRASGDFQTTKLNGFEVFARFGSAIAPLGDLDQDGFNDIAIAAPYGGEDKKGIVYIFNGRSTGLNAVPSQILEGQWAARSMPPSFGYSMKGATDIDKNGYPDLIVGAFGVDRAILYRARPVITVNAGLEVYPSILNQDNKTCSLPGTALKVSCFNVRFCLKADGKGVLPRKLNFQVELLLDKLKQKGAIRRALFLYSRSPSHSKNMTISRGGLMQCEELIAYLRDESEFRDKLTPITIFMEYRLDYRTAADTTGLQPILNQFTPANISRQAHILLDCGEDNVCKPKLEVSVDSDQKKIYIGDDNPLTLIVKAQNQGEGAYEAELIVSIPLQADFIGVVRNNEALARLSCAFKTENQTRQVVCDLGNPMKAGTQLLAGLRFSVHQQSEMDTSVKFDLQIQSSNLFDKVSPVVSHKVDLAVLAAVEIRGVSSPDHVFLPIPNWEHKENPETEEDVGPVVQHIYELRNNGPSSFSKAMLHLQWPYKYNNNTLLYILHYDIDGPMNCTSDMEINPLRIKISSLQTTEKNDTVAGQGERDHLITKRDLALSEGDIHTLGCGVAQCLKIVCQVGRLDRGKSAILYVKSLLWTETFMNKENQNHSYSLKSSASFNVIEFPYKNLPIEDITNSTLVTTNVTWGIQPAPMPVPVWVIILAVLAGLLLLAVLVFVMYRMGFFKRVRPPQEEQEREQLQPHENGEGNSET
# T1 sequence (P18084 24-799 limits assumed, chain 2 of 2): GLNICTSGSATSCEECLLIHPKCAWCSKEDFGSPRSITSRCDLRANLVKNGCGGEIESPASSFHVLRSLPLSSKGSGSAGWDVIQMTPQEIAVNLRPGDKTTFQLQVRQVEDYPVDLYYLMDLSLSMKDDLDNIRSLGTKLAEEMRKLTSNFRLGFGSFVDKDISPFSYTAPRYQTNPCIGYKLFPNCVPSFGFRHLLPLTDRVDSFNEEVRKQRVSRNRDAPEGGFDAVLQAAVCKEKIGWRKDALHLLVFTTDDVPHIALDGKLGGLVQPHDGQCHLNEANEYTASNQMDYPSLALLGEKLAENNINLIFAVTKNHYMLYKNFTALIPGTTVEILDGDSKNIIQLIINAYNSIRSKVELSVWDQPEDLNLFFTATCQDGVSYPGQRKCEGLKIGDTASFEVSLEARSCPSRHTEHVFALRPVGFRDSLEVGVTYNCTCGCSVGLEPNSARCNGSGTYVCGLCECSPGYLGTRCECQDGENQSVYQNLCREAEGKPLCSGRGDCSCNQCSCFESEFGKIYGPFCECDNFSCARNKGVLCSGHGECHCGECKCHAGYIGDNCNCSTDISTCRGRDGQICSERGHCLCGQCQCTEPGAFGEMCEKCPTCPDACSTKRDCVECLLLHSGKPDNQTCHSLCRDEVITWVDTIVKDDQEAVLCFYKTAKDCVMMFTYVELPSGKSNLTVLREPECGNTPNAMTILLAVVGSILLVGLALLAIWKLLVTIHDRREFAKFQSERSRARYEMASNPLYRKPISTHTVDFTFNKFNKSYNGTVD
# assay_text: FACS on αvβ5-BaF3 cells, unpurified antibody
// units = µM; emit number, no label

Consider the reported EC50 for these binders:
{"binder": "VH1/VL1 Agly-hIgG1(T299A) (antibody, V domains shown, also called H1/L1) VH: EVQVVESGGGLVKPGGSLRLSCAASGYTFTSYWMHWVRQAPGKGLEWVGAIYPGNSDTSYNQKFKGRFTISADTSKNTLYLQMNSLKTEDTAVYYCTTTTYGYDWFAYWGQGTLVTVSS VL: DIQMTQSPSSLSASVGDRVTMTCKSSQSVLYSSNQKNYLAWYQQKPGKAPKLLIYWASTRESGVPDRFSGSGSGTDFTLTISSLQPEDFATYYCHQYLSSLTFGQGTKLEIK", "experimental_endpoint": "EC50", "result_unit": "µM", "value_observed": 3.36}
{"binder": "VH3/VL2 Agly-hIgG1(T299A) (antibody, V domains shown, also called H3/L2) VH: EVQVVESGGGLVKPGGSLRLSCKASGYTFTSYWMHWVKQAPGKGLEWVGAIYPGNSDTSYNQKFKGKFTLSAVTSSNTAYLQMNSLKTEDTAVYYCTTTTYGYDWFAYWGQGTLVTVSS VL: NIQMTQSPSSLSASVGDRVTMSCKSSQSVLYSSNQKNYLAWYQQKPGKSPKLLIYWASTRESGVPDRFTGSGSGTDFTLTISSLQPEDFATYYCHQYLSSLTFGQGTKLEIK", "experimental_endpoint": "EC50", "result_unit": "µM", "value_observed": 3.31}

*Q* Query (binder): VH5/VL1 Agly-hIgG1(T299A) (antibody, V domains shown, also called H5/L1) VH: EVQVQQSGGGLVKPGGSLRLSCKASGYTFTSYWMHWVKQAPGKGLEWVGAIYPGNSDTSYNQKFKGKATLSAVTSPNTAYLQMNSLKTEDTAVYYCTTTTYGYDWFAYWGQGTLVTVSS VL: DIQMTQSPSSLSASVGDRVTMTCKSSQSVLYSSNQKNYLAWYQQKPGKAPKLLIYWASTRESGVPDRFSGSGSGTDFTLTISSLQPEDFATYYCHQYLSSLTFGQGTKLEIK ; field requested: EC50
*A* 0.147
